Assignment: determine reported TC50 cytotoxicity for the given compounds.
# Test system: DLD1 NRF2-GOF
# measurement description: TC50 cytotoxicity; higher = less toxic
# measurement parameters: 72 h; CellTox Green cytotoxicity

CC[C@H](NC(=O)[C@H](C)NC)C(=O)N1C[C@@H](O)C[C@H]1Cc1c(-c2[nH]c3cc(F)ccc3c2C[C@@H]2C[C@H](O)CN2C(=O)[C@H](CC)NC(=O)[C@H](C)NC)[nH]c2cc(F)ccc12 yielded TC50 cytotoxicity of > 1000 nM

C=CC(=O)N1CC/C(=C\c2ccc(F)c([N+](=O)[O-])c2)C(=O)/C(=C/c2ccc(F)c([N+](=O)[O-])c2)C1 yielded TC50 cytotoxicity of 5340 nM

O=C(CCCCCCC(=O)Nc1ccccc1)NO yielded TC50 cytotoxicity of > 10000 nM

NC[C@@](O)(c1ccc(Cl)cc1)c1ccc(-c2cn[nH]c2)cc1 yielded TC50 cytotoxicity of > 10000 nM

NC(=O)Nc1cc(-c2cccc(F)c2)sc1C(=O)N[C@H]1CCCNC1 yielded TC50 cytotoxicity of 362 nM

Cn1cncc1[C@@](N)(c1ccc(Cl)cc1)c1ccc2c(c1)c(-c1cccc(Cl)c1)cc(=O)n2C yielded TC50 cytotoxicity of > 10000 nM

Nc1nc(Nc2ccc3c(c2)CC[C@@H](N2CCCC2)CC3)nn1-c1cc2c(nn1)-c1ccccc1CCC2 yielded TC50 cytotoxicity of > 10000 nM

CCCN(CCC)C(=O)C1=Cc2ccc(-c3ccc(C(=O)N4CCCC4)cc3)cc2N=C(N)C1 yielded TC50 cytotoxicity of > 10000 nM

COc1cc(OC)cc(N(CCNC(C)C)c2ccc3ncc(-c4cnn(C)c4)nc3c2)c1 yielded TC50 cytotoxicity of > 1000 nM

CCOC(=O)CCNc1cc(N2CCc3ccccc3CC2)nc(-c2ccccn2)n1 yielded TC50 cytotoxicity of 2800 nM

NC(=O)c1cccc(-c2cccc(OC(=O)NC3CCCCC3)c2)c1 yielded TC50 cytotoxicity of > 1000 nM

CCc1cnn2c(NCc3ccc[n+]([O-])c3)cc(N3CCCC[C@H]3CCO)nc12 yielded TC50 cytotoxicity of > 1000 nM

CC#CC(=O)N1CCC[C@H]1c1nc(-c2ccc(C(=O)Nc3ccccn3)cc2)c2c(N)nccn12 yielded TC50 cytotoxicity of > 1000 nM

COc1cc2ncnc(Nc3cccc(Cl)c3F)c2cc1OC(=O)N1CCN(C)C[C@H]1C yielded TC50 cytotoxicity of > 1000 nM

CC(C)(C)Cn1c(N)nc2ccc(-c3[nH]c(C(C)(C)C)nc3-c3ccc(F)cc3)nc21 yielded TC50 cytotoxicity of > 10000 nM

CC(=O)O[C@H]1C(=O)[C@@]2(C)[C@H]([C@H](OC(=O)c3ccccc3)[C@]3(O)C[C@H](OC(=O)[C@H](O)[C@@H](NC(=O)c4ccccc4)c4ccccc4)C(C)=C1C3(C)C)[C@]1(OC(C)=O)CO[C@@H]1C[C@@H]2O yielded TC50 cytotoxicity of > 1000 nM

CC1(C)CC[C@]2(NC(=O)C(C)(F)F)CC[C@]3(C)[C@H](C(=O)C=C4[C@@]5(C)C=C(C#N)C(=O)C(C)(C)[C@@H]5CC[C@]43C)[C@@H]2C1 yielded TC50 cytotoxicity of > 10000 nM

====

# System: DLD1 NRF2-WT
# measurement description: drug sensitivity score (DSS) viability (DSS score); higher = more sensitive; extreme values may be limits of the assay
# measurement parameters: 72 h; CellTiter-Glo viability
In plain terms, low drug sensitivity score, meaning strictly below 6, gives Condition met, and everything else gives Condition not met.

Exam item: In plain terms, does FC(F)(F)c1ccc(CNc2ccc(Cc3c[nH]c4ncc(Cl)cc34)cn2)cn1 come in under 6 for drug sensitivity score?
Marked response: Condition met

Exam item: In plain terms, does CN[C@@H]1C[C@H]2O[C@@](C)([C@@H]1OC)n1c3ccccc3c3c4c(c5c6ccccc6n2c5c31)C(=O)N[C@H]4O come in under 6 for drug sensitivity score?
Marked response: Condition not met

Exam item: In plain terms, does Cc1nc(Nc2n[nH]c3c2CN(C(=O)N[C@H](CN(C)C)c2ccccc2)C3(C)C)c2sccc2n1 come in under 6 for drug sensitivity score?
Marked response: Condition not met

Exam item: In plain terms, does O=C(NCc1ccncc1)C12CC3CC(C1)CC(c1ccc(Cl)cc1)(C3)C2 come in under 6 for drug sensitivity score?
Marked response: Condition not met

Exam item: In plain terms, does CN1CCC(COc2cnc(-c3cccc(Cn4nc(-c5cccc(C#N)c5)ccc4=O)c3)nc2)CC1 come in under 6 for drug sensitivity score?
Marked response: Condition met

Exam item: In plain terms, does CC(=O)O[C@@]12CO[C@@H]1C[C@H](O)[C@@]1(C)C(=O)[C@H](O)C3=C(C)[C@@H](OC(=O)[C@H](O)[C@@H](NC(=O)OC(C)(C)C)c4ccccc4)C[C@@](O)([C@@H](OC(=O)c4ccccc4)[C@H]21)C3(C)C come in under 6 for drug sensitivity score?
Marked response: Condition not met

Exam item: In plain terms, does Nc1cc(F)ccc1NC(=O)/C=C/c1cnn(C/C=C/c2ccccc2)c1 come in under 6 for drug sensitivity score?
Marked response: Condition met

Exam item: In plain terms, does C1=N/C2=N/c3ccc(OCCN4CCCC4)c(c3)COC/C=C/COCc3cccc(c3)C(=C1)N2 come in under 6 for drug sensitivity score?
Marked response: Condition not met

Exam item: In plain terms, does CCn1c(C(=O)N(C2CC2)C2CC2)cc2c3c(ncn3C)c(Nc3cc(C)n(C)n3)nc21 come in under 6 for drug sensitivity score?
Marked response: Condition not met

Exam item: In plain terms, does CCN(CC)CCCC(C)Nc1ccnc2cc(Cl)ccc12 (stereo not drawn) come in under 6 for drug sensitivity score?
Marked response: Condition not met

Exam item: In plain terms, does CCOc1cc2ncc(C#N)c(Nc3ccc(OCc4ccccn4)c(Cl)c3)c2cc1NC(=O)/C=C/CN(C)C come in under 6 for drug sensitivity score?
Marked response: Condition met

Exam item: In plain terms, does CNC(=O)c1cc(Oc2ccc(NC(=O)Nc3ccc(Cl)c(C(F)(F)F)c3)c(F)c2)ccn1 come in under 6 for drug sensitivity score?
Marked response: Condition met

Exam item: In plain terms, does CNC(=O)c1cccc2cc(Oc3ccnc4cc(OCC5(N)CC5)c(OC)cc34)ccc12 come in under 6 for drug sensitivity score?
Marked response: Condition met

Exam item: In plain terms, does O=C(Nc1ccc(OC(F)(F)Cl)cc1)c1cnc(N2CC[C@@H](O)C2)c(-c2cc[nH]n2)c1 come in under 6 for drug sensitivity score?
Marked response: Condition met

Exam item: In plain terms, does CC/C(=C(\c1ccc(O)cc1)c1ccc(OCCN(C)C)cc1)c1ccccc1 [4-hydroxytamoxifen] come in under 6 for drug sensitivity score?
Marked response: Condition met

Exam item: In plain terms, does Clc1ccc(Nc2nnc(Cc3ccncc3)c3ccccc23)cc1 come in under 6 for drug sensitivity score?
Marked response: Condition met

Exam item: In plain terms, does C=CC(=O)Nc1cccc(Oc2nc(Nc3ccc(N4CCN(C)CC4)cc3)nc3ccsc23)c1 come in under 6 for drug sensitivity score?
Marked response: Condition met
